- Test system: EKVX NSCLC
- measurement_description: NCI tumour cell line growth inhibition, 48 h
Items are presented alongside their recorded TGI.

Look over these answered cases.
> print(dat)
                                   compound  test.system  result.value
1  Cc1[nH]c(=O)nc(Nc2ccc(Cl)cc2)c1C(=O)N1CCN(CCO)CC1   EKVX NSCLC      > 100 µM
2  COC(=O)CC1c2ccccc2N2C(=O)Cc3c([nH]c4ccccc34)C12 (centres undefined)   EKVX NSCLC      > 100 µM

Param item = O=S(=O)(c1cccc2c(I)cccc12)N1CCCNCC1 ; retrieve measured TGI.
39.7 µM

For the compound COC(=N)c1c(N)[n+]([O-])c2ccc(F)cc2[n+]1[O-] , what TGI is on record?
> 100 µM

All values here come from PubChem BioAssay (NCI).
